target: HLA-B*07:02; experiment: IEDB peptide-MHC binding, purified MHC/competitive/radioactivity; filed as Kd, often an IC50 or EC50 that approximates it; bounds were set here for any values at or beyond the usual limits of such assays; details: source organism: Vaccinia virus WR
Kd strictly under 300 nM means true; at 300 nM or over means false.

Reference set (5 entries):
RLYDYFTRV; false
KTSTLIFFV; false
DPMVIENGI; false
NPLFHGGEPI; true
MPTYKHLIMF; true

Problem: For the sequence SPYYIRKESY , is Kd under 300 nM?
true

Check if Kd falls below 300 nM for DPSERVFKKI .
false

Say whether its Kd is strictly beneath 300 nM. Entry: YPEYNRAVKF
true

In plain terms, does FPGDKTSYWV come in under 300 nM for Kd?
true

Field: below-cutoff. Rule: recorded Kd strictly less than 300 nM. Subject: SLTIKDSSNK
false
